Experiment: Oral bioavailability in Beagle dog at […]
Format: ADME, organism-based, Canis lupus familiaris
Settings: in vivo
A collection of compounds and their measured bioavailability
PROPERTY_MEASURED: bioavailability (%)

MOLECULE: NC(=O)c1cccc2[nH]c(-c3ccc([C@@H]4CCCCN4)cc3F)nc12
RESULT_UNIT: %
EXPERIMENTAL_VALUE: 39
--
MOLECULE: NC(=O)c1cccc2[nH]c(-c3ccc([C@@H]4CCCN4)cc3F)nc12
RESULT_UNIT: %
EXPERIMENTAL_VALUE: 72

----------
Assay: Half life in iv dosed CD1 mouse
Type: ADME, organism-based
Details: in vivo
In this section we review reported half-life values for a set of compounds.

MOLECULE: NC(=O)c1cccc2[nH]c(-c3ccc([C@H]4CCCCN4)cc3F)nc12
half-life [h]: 1.4
--
MOLECULE: NC(=O)c1cccc2[nH]c(-c3ccc([C@@H]4CCCCN4)cc3F)nc12
half-life [h]: 1.3
--
MOLECULE: NC(=O)c1cccc2[nH]c(-c3ccc([C@@H]4CCCN4)cc3F)nc12
half-life [h]: 0.8
--
MOLECULE: NC(=O)c1cccc2[nH]c(-c3ccc([C@H]4CCCN4)cc3F)nc12
half-life [h]: 0.9

----------
Experiment: Cmax in CD1 mouse at 10 mg/kg, po
Format: ADME, organism-based
Parameters: dose 10 mg/kg, route oral
Details: in vivo
Reported Cmax is given for each of the following compounds.

MOLECULE: NC(=O)c1cccc2[nH]c(-c3ccc([C@@H]4CCCN4)cc3F)nc12
Cmax [ng/mL]: 600

MOLECULE: NC(=O)c1cccc2[nH]c(-c3ccc([C@H]4CCCCN4)cc3F)nc12
Cmax [ng/mL]: 300

MOLECULE: NC(=O)c1cccc2[nH]c(-c3ccc([C@@H]4CCCCN4)cc3F)nc12
Cmax [ng/mL]: 500

MOLECULE: NC(=O)c1cccc2[nH]c(-c3ccc([C@H]4CCCN4)cc3F)nc12
Cmax [ng/mL]: 500

----------
Measured Vd by item
Test: Terminal phase volume of distribution in CD1 mouse
Type: ADME, organism-based
Settings: in vivo, read-out: Vbeta

MOLECULE: NC(=O)c1cccc2[nH]c(-c3ccc([C@@H]4CCCN4)cc3F)nc12
Vd (L/kg): 3.3
--
MOLECULE: NC(=O)c1cccc2[nH]c(-c3ccc([C@H]4CCCCN4)cc3F)nc12
Vd (L/kg): 15
--
MOLECULE: NC(=O)c1cccc2[nH]c(-c3ccc([C@@H]4CCCCN4)cc3F)nc12
Vd (L/kg): 6.6
--
MOLECULE: NC(=O)c1cccc2[nH]c(-c3ccc([C@H]4CCCN4)cc3F)nc12
Vd (L/kg): 4.6

----------
Listed here are compounds together with their documented AUC.
Assay: AUC in CD1 mouse plasma at 30 mg/kg, po
Format: ADME, organism-based
Set-up: dose 30 mg/kg, route oral
PROPERTY_MEASURED: AUC (ng·h/mL)

MOLECULE: NC(=O)c1cccc2[nH]c(-c3ccc([C@@H]4CCCCN4)cc3F)nc12
PROPERTY_MEASURED: AUC
EXPERIMENTAL_VALUE: 9900

MOLECULE: NC(=O)c1cccc2[nH]c(-c3ccc([C@@H]4CCCN4)cc3F)nc12
PROPERTY_MEASURED: AUC
EXPERIMENTAL_VALUE: 9800

MOLECULE: NC(=O)c1cccc2[nH]c(-c3ccc([C@H]4CCCN4)cc3F)nc12
PROPERTY_MEASURED: AUC
EXPERIMENTAL_VALUE: 4200

MOLECULE: NC(=O)c1cccc2[nH]c(-c3ccc([C@H]4CCCCN4)cc3F)nc12
PROPERTY_MEASURED: AUC
EXPERIMENTAL_VALUE: 5800
